ASSAYED_TARGET: Fes (UniProt P07332)
Sequence (P07332 whole entry, looked up): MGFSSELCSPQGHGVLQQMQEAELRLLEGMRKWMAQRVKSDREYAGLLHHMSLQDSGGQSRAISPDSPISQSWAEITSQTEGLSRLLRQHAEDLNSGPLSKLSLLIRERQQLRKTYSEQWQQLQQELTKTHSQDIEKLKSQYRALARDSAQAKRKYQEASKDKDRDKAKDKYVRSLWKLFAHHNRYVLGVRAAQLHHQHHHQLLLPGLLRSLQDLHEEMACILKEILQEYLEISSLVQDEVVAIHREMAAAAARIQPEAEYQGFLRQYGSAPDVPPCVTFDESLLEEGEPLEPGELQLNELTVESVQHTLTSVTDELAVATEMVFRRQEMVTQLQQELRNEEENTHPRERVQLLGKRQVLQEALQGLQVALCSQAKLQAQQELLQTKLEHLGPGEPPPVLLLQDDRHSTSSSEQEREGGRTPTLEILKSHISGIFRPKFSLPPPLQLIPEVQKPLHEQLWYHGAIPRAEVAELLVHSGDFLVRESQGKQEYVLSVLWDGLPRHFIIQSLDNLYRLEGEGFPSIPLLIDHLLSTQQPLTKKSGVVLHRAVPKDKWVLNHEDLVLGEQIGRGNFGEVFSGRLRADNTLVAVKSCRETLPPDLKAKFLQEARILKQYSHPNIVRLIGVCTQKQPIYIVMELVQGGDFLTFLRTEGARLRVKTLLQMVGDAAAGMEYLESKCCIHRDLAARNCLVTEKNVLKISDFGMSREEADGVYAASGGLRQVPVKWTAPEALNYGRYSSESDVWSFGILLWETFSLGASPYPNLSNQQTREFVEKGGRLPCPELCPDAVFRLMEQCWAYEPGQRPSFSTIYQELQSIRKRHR
EXPERIMENT_SUMMARY: phosphorylation enrichment, bacterial display (enrichment ratio); higher = better substrate or ligand; peptides without Tyr show the background;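 note: 11-residue human phosphosite peptides and single-mutation variants displayed on the E. coli surface, counted by deep sequencing, each peptide's frequency after selection divided by its frequency in the unselected input library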;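 note: frequency after pTyr selection over input frequency; kinase dosed for 20-30% of maximal phosphorylation in three min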
Catalogue of sequences with associated phosphorylation enrichment
EXPERIMENTAL_ENDPOINT: phosphorylation enrichment

> print(dat)
                      polymer.sequence       experimental.endpoint  result.value
 1     SDGKRYRVPSD [HHIPL2_Y395_H391D]  phosphorylation enrichment         0.522
 2       KDHLDYKYQPR [SOX9_Y172_P170L]  phosphorylation enrichment         0.704
 3   FDGKDYIALKE [HLA-A_Y147_N151K_YF]  phosphorylation enrichment         0.672
 4       PNRILYGDFWQ [MYH6_Y717_R721W]  phosphorylation enrichment          1.29
 5        QEEPEYWDQET [HLA-A_Y83_G80E]  phosphorylation enrichment          1.95
 6   EHFSFYGMKAV [SLC15A2_Y61_R57H_YF]  phosphorylation enrichment          1.04
 7       SVVVSYEPPEV [TP53_Y220_P219S]  phosphorylation enrichment         0.918
 8             QYKDKYLAKHN [CASK_Y712]  phosphorylation enrichment         0.927
 9             PVKSEYPSIKL [NPC2_Y119]  phosphorylation enrichment         0.822
10         FKRAVYCIIGR [NUP93_Y391_YF]  phosphorylation enrichment           0.9
11     VTAALYGCLFE [BTD_Y536_R538C_YF]  phosphorylation enrichment          1.55
12              IHKEFYDGLFP [BCR_Y561]  phosphorylation enrichment          1.27
13        EQKKFYNAMKK [SCN5A_Y1495_YF]  phosphorylation enrichment         0.576
14    CTTIHYNFLCN [TP53_Y234_M237L_YF]  phosphorylation enrichment         0.941
15    VMIFAYLLHRG [PTEN_Y138_C136Y_YF]  phosphorylation enrichment         0.828
16        VPANRYDLLRL [FARSB_Y72_C76R]  phosphorylation enrichment          0.65
17    RHFVFYFSFLL [PTEN_Y177_R173H_YF]  phosphorylation enrichment         0.867
18    VRVQLYDPDFM [CYP4A22_Y100_Y104F]  phosphorylation enrichment          1.17
19       NTGNYYDLYGG [PTPN11_Y63_D61N]  phosphorylation enrichment         0.984
20        SGIYQYNIAKF [FOXL2_Y83_I84N]  phosphorylation enrichment         0.732
21       IVLRSYPASDH [NID2_Y449_G453D]  phosphorylation enrichment         0.823
22          IGRHAYGDQFR [IDH1_Y135_YF]  phosphorylation enrichment         0.507
23       FGPPQYNIQFS [ERBB2IP_Y977_YF]  phosphorylation enrichment         0.779
24          FKGKKYKPLDL [RPL35_Y78_YF]  phosphorylation enrichment         0.571
25       PSQRRNVYYYS [PTEN_Y174_Y174N]  phosphorylation enrichment         0.838
26    LLQEWYMIISR [HUWE1_Y4066_R4063Q]  phosphorylation enrichment          2.39
27          PSQRRYVFFFS [PTEN_Y174_YF]  phosphorylation enrichment          1.77
28  MGSFNYLGFAW [SPTLC2_Y178_R183W_YF]  phosphorylation enrichment          1.16
